Attribute: solubility
Assay: Solubility in water at 20° C.
Assay type: physicochemical

# cpd_smiles, solubility
data = [
    ("CCCCCCCCCCCC[N+](C)(C)CCN(CCCS(=O)(=O)[O-])C(C)=O", "300 mg/mL"),
    ("CCCCCCCCCCCCCCCCCC[N+](C)(C)CCCN(CCCCS(=O)(=O)[O-])C(C)=O", "4 mg/mL"),
    ("CCCCCCCCCCCCCCCCCC[N+](C)(C)CCN(CCCS(=O)(=O)[O-])C(C)=O", "80 mg/mL"),
]

Now, please, on to the next compound.
Exercise: Tell me its solubility given CCCCCCCCCCCC[N+](C)(C)CCCN(CCCS(=O)(=O)[O-])C(C)=O as the entry.
Key: 300 mg/mL
